- tested-on: GST fusion human ERK2 protein (Homo sapiens)
- Construct: purchased Carna Biosciences, Inc; host or cells: E. coli expression system
- Sequence (P28482 whole entry, the tested form may be a part): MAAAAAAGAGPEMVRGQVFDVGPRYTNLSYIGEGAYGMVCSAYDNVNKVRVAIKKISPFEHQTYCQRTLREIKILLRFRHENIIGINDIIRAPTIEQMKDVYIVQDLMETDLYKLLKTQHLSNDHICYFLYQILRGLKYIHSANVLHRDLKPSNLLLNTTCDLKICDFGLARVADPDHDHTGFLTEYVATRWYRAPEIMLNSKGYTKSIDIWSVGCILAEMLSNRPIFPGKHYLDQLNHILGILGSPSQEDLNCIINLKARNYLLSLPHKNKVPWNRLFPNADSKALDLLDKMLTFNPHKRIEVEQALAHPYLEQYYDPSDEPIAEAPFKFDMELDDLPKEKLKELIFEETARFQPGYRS
- assay-name: ERK2 enzyme assay (2)
- Assay type: biochemical
- condition: ERK2 enzyme assay (2); read-out: ERK2 enzyme inhibitory activity (2)
pIC50: −log10 of the molar value.
property-name: pIC50

Examples from the recorded data:
{"columns": ["molecule", "val"],
 "data": [
  ["Cc1nn(C)cc1-c1cnc2ccc(Nc3cc(C(C)C)cnn3)nc2c1", "> 6.00"],
  ["CC(C)c1cnnc(Nc2ccc3ncc(-c4ccnc(O)c4)cc3n2)c1", "> 6.00"],
  ["Cn1cc(-c2cnc3ccc(Nc4nnc(CC5CCCO5)s4)nc3c2)cn1 (centres unmarked)", "> 6.00"]
]}

Give recorded pIC50. COCC1(Nc2cnc3ccc(Nc4cc(C(C)C)cnn4)nc3c2)CCC1
4.30 to 5.00

Give recorded pIC50. CC(C)c1cnnc(Nc2ccc3ncc(-c4cnn(CCCN(C)CC(F)(F)F)c4)cc3n2)c1
> 6.00

Give recorded pIC50. CC(C)c1cnnc(Nc2ccc3ncc(-c4cn(C)nc4N4CCOCC4)cc3n2)c1
> 6.00

Give recorded pIC50. CC(C)c1cnnc(Nc2ccc3ncc(N4CC(NS(C)(=O)=O)C4)cc3n2)c1
> 6.00

Give recorded pIC50. Cc1ccncc1-c1nn(C)cc1-c1cnc2ccc(Nc3cc(C(C)C)cnn3)nc2c1
5.00 to 6.00
